Cited source: ChEMBL document CHEMBL5543083

- Test system: PANC-1
- ASSAY_REMARKS: Induction of ROS production in high glucose-induced human PANC-1 cells assessed as maximum fluorescence intensity at 10 uM incubated for 30 mins DCFDA-staining based flow cytometry analysis (reference value: 15.09)
- Assay type: functional
- CONDITION_PARAMETERS: 0.5 h
// boundary case: Flu intensity equal to 20000 maps to F; strictly smaller maps to T

[
  {
    "COMPOUND": "COc1cccc(/C=C2\\SC(=O)N(Cc3cccc([N+](=O)[O-])c3)C2=O)c1OC",
    "QUALITATIVE_LABEL": "T"
  },
  {
    "COMPOUND": "CN(C)c1ccc(/C=C2\\SC(=O)N(Cc3cccc([N+](=O)[O-])c3)C2=O)cc1",
    "QUALITATIVE_LABEL": "F"
  },
  {
    "COMPOUND": "O=C1S/C(=C\\c2c[nH]c3ccccc23)C(=O)N1Cc1ccccc1",
    "QUALITATIVE_LABEL": "F"
  },
  {
    "COMPOUND": "COc1cc(/C=C2\\SC(=O)N(Cc3cccc([N+](=O)[O-])c3)C2=O)ccc1O",
    "QUALITATIVE_LABEL": "F"
  },
  {
    "COMPOUND": "COc1ccc(/C=C2\\SC(=O)N(Cc3cccc([N+](=O)[O-])c3)C2=O)c(OC)c1",
    "QUALITATIVE_LABEL": "F"
  },
  {
    "COMPOUND": "O=C1S/C(=C\\c2ccc(Br)cc2)C(=O)N1Cc1cccc([N+](=O)[O-])c1",
    "QUALITATIVE_LABEL": "T"
  },
  {
    "COMPOUND": "COc1cc(OC)c(/C=C2\\SC(=O)N(Cc3cccc([N+](=O)[O-])c3)C2=O)c(OC)c1",
    "QUALITATIVE_LABEL": "F"
  },
  {
    "COMPOUND": "COc1ccc(OC)c(/C=C2\\SC(=O)N(Cc3cccc([N+](=O)[O-])c3)C2=O)c1",
    "QUALITATIVE_LABEL": "F"
  },
  {
    "COMPOUND": "COc1ccc(/C=C2\\SC(=O)N(Cc3cccc([N+](=O)[O-])c3)C2=O)cc1O",
    "QUALITATIVE_LABEL": "F"
  },
  {
    "COMPOUND": "COc1cc(OC)c(OC)cc1/C=C1\\SC(=O)N(Cc2cccc([N+](=O)[O-])c2)C1=O",
    "QUALITATIVE_LABEL": "F"
  },
  {
    "COMPOUND": "O=C1S/C(=C\\c2c(Cl)cccc2Cl)C(=O)N1Cc1cccc([N+](=O)[O-])c1",
    "QUALITATIVE_LABEL": "F"
  },
  {
    "COMPOUND": "O=C1S/C(=C\\c2ccc(Cl)cc2Cl)C(=O)N1Cc1cccc([N+](=O)[O-])c1",
    "QUALITATIVE_LABEL": "T"
  },
  {
    "COMPOUND": "CCOc1cc(/C=C2\\SC(=O)N(Cc3cccc([N+](=O)[O-])c3)C2=O)ccc1O",
    "QUALITATIVE_LABEL": "T"
  },
  {
    "COMPOUND": "O=C1S/C(=C\\c2ccc(O)cc2)C(=O)N1Cc1cccc([N+](=O)[O-])c1",
    "QUALITATIVE_LABEL": "F"
  },
  {
    "COMPOUND": "O=C1S/C(=C\\c2cccc(Cl)c2Cl)C(=O)N1Cc1cccc([N+](=O)[O-])c1",
    "QUALITATIVE_LABEL": "F"
  },
  {
    "COMPOUND": "O=C1S/C(=C\\c2ccc(-c3ccccc3)cc2)C(=O)N1Cc1cccc([N+](=O)[O-])c1",
    "QUALITATIVE_LABEL": "F"
  },
  {
    "COMPOUND": "C[C@H]1O[C@H](O[C@H]2[C@H](O)[C@@H](O)[C@@H](O[C@H]3[C@H](O)[C@@H](O)C(O)O[C@@H]3CO)O[C@@H]2CO)[C@H](O)[C@@H](O)[C@@H]1N[C@H]1C=C(CO)[C@@H](O)[C@H](O)[C@H]1O (stereo partly drawn)",
    "QUALITATIVE_LABEL": "T"
  },
  {
    "COMPOUND": "COc1ccc(/C=C2\\SC(=O)N(Cc3cccc([N+](=O)[O-])c3)C2=O)cc1",
    "QUALITATIVE_LABEL": "F"
  }
]
